Biological target: Complement component 3 (C3) (Homo sapiens) (UniProt P01024+P01024)
Sequence (P01024 23-667, chain 1 of 2): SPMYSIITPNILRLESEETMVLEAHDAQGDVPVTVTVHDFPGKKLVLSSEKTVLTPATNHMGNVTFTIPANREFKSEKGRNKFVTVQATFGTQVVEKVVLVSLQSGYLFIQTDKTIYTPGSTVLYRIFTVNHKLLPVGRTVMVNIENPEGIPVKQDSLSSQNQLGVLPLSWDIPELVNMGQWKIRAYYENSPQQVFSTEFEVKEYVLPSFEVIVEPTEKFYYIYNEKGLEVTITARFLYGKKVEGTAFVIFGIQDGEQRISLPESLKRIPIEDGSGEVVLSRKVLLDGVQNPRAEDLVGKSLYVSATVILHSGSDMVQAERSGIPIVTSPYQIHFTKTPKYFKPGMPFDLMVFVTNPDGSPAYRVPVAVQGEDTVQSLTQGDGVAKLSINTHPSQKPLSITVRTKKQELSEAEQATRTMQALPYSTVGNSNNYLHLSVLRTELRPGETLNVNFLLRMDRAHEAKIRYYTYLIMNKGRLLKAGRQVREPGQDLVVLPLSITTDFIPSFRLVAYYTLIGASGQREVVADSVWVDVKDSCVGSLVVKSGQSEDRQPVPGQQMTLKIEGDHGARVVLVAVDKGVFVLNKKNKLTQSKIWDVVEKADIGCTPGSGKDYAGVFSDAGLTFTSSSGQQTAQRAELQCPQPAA
Sequence (P01024 672-1663, chain 2 of 2): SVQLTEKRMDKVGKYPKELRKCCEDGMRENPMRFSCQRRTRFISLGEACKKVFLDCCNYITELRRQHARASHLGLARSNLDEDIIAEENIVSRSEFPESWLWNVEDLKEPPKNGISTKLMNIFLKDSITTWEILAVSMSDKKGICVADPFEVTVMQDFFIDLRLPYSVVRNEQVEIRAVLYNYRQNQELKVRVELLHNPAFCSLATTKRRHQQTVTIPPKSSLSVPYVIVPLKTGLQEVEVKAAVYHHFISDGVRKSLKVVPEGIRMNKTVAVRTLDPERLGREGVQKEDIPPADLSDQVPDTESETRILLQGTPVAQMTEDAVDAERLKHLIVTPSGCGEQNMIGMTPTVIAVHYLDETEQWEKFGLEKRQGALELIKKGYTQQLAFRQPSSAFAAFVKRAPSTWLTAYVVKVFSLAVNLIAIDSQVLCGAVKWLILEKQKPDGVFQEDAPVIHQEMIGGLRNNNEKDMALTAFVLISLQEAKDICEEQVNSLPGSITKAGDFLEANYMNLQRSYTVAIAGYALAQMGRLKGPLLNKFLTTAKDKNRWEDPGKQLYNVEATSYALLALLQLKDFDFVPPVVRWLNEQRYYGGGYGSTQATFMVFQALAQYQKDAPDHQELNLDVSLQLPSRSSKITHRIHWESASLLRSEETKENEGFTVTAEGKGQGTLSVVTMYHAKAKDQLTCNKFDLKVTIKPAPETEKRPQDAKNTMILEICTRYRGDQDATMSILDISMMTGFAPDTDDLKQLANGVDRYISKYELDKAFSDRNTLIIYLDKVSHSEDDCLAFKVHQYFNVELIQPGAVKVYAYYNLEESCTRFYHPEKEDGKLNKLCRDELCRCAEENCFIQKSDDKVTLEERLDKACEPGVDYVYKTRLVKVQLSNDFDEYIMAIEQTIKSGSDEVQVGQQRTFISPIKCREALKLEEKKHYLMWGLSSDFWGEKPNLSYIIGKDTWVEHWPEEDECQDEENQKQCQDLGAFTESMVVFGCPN
Test: filter
Settings: all U = NapdU; C3-spacer replaces C7, C9, C17, C25; 3'-3' idT; SB18T0.01, 37C
pKd: −log10 of the molar value.
property measured: pKd

>>> df
                        polymer_sequence  property_measured  value_observed
0  CGGUGAUAAUAGUCGUACGUUCCG [8491-94_55]                pKd           10.38

----------
Biological target: Complement component 3 (C3) (Homo sapiens) (UniProt P01024+P01024)
Assay: filter
Conditions: P = NapdU (all U); 2'-OMe G5; 3'-3' idT; SB18T0.01, 5 mM MgCl2, 37 C
pKd: −log10 of the molar value.
property measured: pKd

>>> print(df.to_string())
                           polymer_sequence  property_measured  value_observed
0  CGGUGACUCAAUAGUCCGUACGUUCCCG [8491-94_63]                pKd           10.57
